# Experimental Target: human LAG3 expressed on cells (human) (UniProt P18627)
# Sequence (P18627 23-525): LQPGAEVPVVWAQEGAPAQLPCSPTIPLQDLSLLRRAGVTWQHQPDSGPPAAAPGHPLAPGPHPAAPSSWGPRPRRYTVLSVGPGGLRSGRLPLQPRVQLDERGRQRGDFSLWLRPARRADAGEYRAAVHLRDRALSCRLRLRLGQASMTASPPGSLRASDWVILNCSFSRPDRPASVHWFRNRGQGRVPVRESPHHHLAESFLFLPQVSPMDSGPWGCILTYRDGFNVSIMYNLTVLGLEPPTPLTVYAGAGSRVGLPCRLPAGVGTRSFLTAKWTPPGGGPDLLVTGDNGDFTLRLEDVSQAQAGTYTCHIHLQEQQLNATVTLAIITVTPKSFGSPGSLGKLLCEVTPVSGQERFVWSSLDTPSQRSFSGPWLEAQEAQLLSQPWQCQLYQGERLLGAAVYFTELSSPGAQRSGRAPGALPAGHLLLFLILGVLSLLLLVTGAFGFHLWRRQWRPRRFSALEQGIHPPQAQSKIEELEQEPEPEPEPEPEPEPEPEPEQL
# Test Description: cell-based or functional assay
Measurement Label: Efficacy (Normalized to BMS)
Answer format: value, then unit.

Request: Check the records and state Efficacy (Normalized to BMS) for sdAb fusion 25-2015-1 (Fc fusion, not shown: a dimerising Fc or GST) QLQLVESGGGLVQAGGSLRLSCAASGSIESFSFMGWYRQAPGKQRELVAGFTGAASLSFSTYTDAVKGRFTISRDNAKNTVYLQMNSLKPEDTAVYFCNVDPWSQSWPGRYWGQGTQVTVSSGGGGSQLQLVESGGGLAQTGGSLRLSCAAAGFTFDDTATGWFRQAPGKNREGVACISSSDGRIHYIDSAKGRFTISKDNAKKTVYLQMDSLKPEDTAVYYCAAARKGSTDCQGAIWGSWGQGTQVIVSSEPKSCDKTHTCPPCPAPELLG
Response: 114%
